I'd appreciate it if you could supply TGI values for the items below.
Test system: SF-295 CNS
procedure.details: NCI tumour cell line growth inhibition, 48 h

[
  {
    "compound": "Cc1cc2nc3c(C)c4ccccc4c(C)n3c2cc1C",
    "TGI": "> 10 µM"
  },
  {
    "compound": "CCc1c[n+]2c(cc1C1=CN3c4ccccc4[C@]45CCN6C/C(=C/CO)[C@H](C[C@H]64)[C@@H]([C@@H]1O)[C@H]35)-c1[nH]c3ccccc3c1CC2",
    "TGI": "> 50 µM"
  }
]

In the following, a different compound is considered.
Task: Give its TGI value. Item: C=C1[C@H](O)C[C@@H](C(C)C(O)CC=C(C)C)[C@@H](O)[C@@H]2C(C)=CC[C@@H]12 (stereo partly drawn)
Result: > 100 µM

====

Test system: UO-31 renal
procedure.details: NCI tumour cell line growth inhibition, 48 h
I'd appreciate it if you could supply GI50 values for the items below.

Examples with their reported GI50 follow.
[
  {
    "given.smiles": "CCN(Cc1c(F)cccc1C(F)(F)F)c1ccc(CO)c(Cl)c1",
    "experimental.endpoint": "GI50",
    "result": "14.6 µM"
  },
  {
    "given.smiles": "O=C(O)[C@@H](Cc1ccccc1)NS(=O)(=O)c1ccc(-c2ccccc2)cc1",
    "experimental.endpoint": "GI50",
    "result": "24.9 µM"
  }
]

Task: Give its GI50 value. Item: COc1cc(N2CCN(C(C)C)CC2)ccc1Nc1nc(Nc2ccc(F)cc2C(N)=O)c2cc[nH]c2n1
Result: 0.996 µM

====

Test system: SK-OV-3 ovarian
procedure.details: NCI tumour cell line growth inhibition, 48 h
experimental.endpoint: TGI

Examples with their reported TGI follow.
[
  {
    "molecule": "COc1cc2c(cc1OC)C/C(=N\\O)c1cc(OC)c(OC)cc1/C=C\\2",
    "TGI": "> 85.3 µM"
  },
  {
    "molecule": "CCOC1=C2N=C(C(CC)c3ccc(F)cc3)N=C2C(=O)c2ccccc21 (stereo not drawn)",
    "TGI": "> 100 µM"
  },
  {
    "molecule": "COC(=O)/C(=C1\\OC(=O)C(c2ccc(Cl)cc2)=C1O)c1ccc(Cl)cc1",
    "TGI": "84.6 µM"
  },
  {
    "molecule": "C/C(COc1ccccc1)=N\\NC(N)=S",
    "TGI": "> 100 µM"
  },
  {
    "molecule": "COc1ccccc1-c1nc[nH]c1-c1ccccc1OC",
    "TGI": "> 100 µM"
  },
  {
    "molecule": "Cc1nc(-n2nc(-c3ccccc3)cc2-c2ccccc2)sc1C(/C=C\\c1ccc([N+](=O)[O-])cc1)=N/NC(=S)NN",
    "TGI": "> 100 µM"
  }
]

Report TGI for each item below.
1. CC(C)C(C=O)C(O)(C(F)(F)F)C(F)(F)F (stereo not drawn)
2. COc1ccc(C2CC(=O)Nc3c2c(C)nn3-c2nc3ccccc3[nH]2)cc1OC (stereo not drawn)

Result:
> 100 µM
6.49 µM

====

I'd appreciate it if you could supply TGI values for the items below.
Test system: HS 578T breast
procedure.details: NCI tumour cell line growth inhibition, 48 h

Examples with their reported TGI follow.
[
  {
    "molecule": "C=C1CC2(CC(c3ccccc3C)OC(c3ccccc3C)C2)OC1=O (stereo unspecified)",
    "result": "5.43 µM"
  },
  {
    "molecule": "Clc1ccc(Nc2nnc(COc3ccccc3)c3ccccc23)cc1",
    "result": "10.5 µM"
  },
  {
    "molecule": "COc1ccc2nc3c(nc2c1)C(C)(C)C=C3c1ccc(Br)cc1",
    "result": "> 100 µM"
  },
  {
    "molecule": "CCOP(=O)(OCC)C(Cc1cn(S(=O)(=O)c2ccc(C)cc2)cn1)C(=O)O (stereo unspecified)",
    "result": "> 100 µM"
  },
  {
    "molecule": "COC(=O)C1(N2CCOCC2)CCC([C@@H](c2ccccc2)C(C)[N+](=O)[O-])C1 (stereo partly specified)",
    "result": "> 100 µM"
  },
  {
    "molecule": "Cn1c(SCc2ccc([N+](=O)[O-])cc2)nnc1C12CC3CC(CC(C3)C1)C2",
    "result": "> 10 µM"
  },
  {
    "molecule": "COc1cc2cc(C(=O)Nc3ccccc3)c(N)nc2cc1OC",
    "result": "> 100 µM"
  },
  {
    "molecule": "c1ccc(OCC[P+](c2ccccc2)(c2ccccc2)c2ccccc2)cc1",
    "result": "16.5 µM"
  },
  {
    "molecule": "C#Cc1cccc(NC(=O)C2CCCCN2C(=O)CCl)c1 (stereo unspecified)",
    "result": "76.4 µM"
  },
  {
    "molecule": "CNC(=O)/C(C#N)=C(\\N)N1CCCC1",
    "result": "> 100 µM"
  }
]

Report TGI for each item below.
1. COc1ccc(COc2ccc(Cc3cnc(N)nc3N)cc2OC)cc1
2. CCN1C(=O)N(CC)C2C1NN=c1s/c(=C\c3ccc(Br)cc3)c(=O)n12 (stereo unspecified)
3. C=C1C(=O)O[C@H]2[C@H]1CC/C(COC(=O)NCCc1ccc(Br)cc1)=C\CC[C@@]1(C)O[C@@H]21
4. Fc1ccc(Nc2ccnc(N3CCN(c4ccnc5cc(Cl)ccc45)CC3)n2)cc1
5. C[C@]12CC[C@@H]3c4cc(C=O)c(OCc5ccccc5)cc4CC[C@H]3[C@@H]1CCC2OCc1ccccc1 (stereo partly specified)
6. C1=Nc2ccc(cc2)-c2ccc(cc2)N=Cc2ccccc2OCc2cccc(n2)COc2ccccc21
7. COc1cc(N2CCN(C(C)C)CC2)ccc1Nc1nc(Nc2ccc(F)cc2C(N)=O)c2cc[nH]c2n1

Result:
1. > 25 µM
2. > 100 µM
3. 7.15 µM
4. 39 µM
5. > 100 µM
6. 47 µM
7. 9.8 µM

Report TGI for each item below.
1. COc1cc(OC)c(OC)cc1/C=C/c1ccc2ccccc2n1
2. COc1ccc(C2CC(=O)Nc3c2c(C)nn3-c2nc3ccccc3[nH]2)cc1OC (stereo unspecified)
3. O=C(Nc1ccc(-c2cn3ccccc3n2)cc1)c1cc(Br)ccc1O
4. Cc1cc(C2CC(O)C(CO)O2)c(Br)cc1Br (stereo unspecified)
5. COc1cc(/C=[N+](\[O-])c2ccccc2Cl)ccc1OC(=S)S
6. COc1ccc(N2CCN(c3nc(-c4ccccn4)nc4sc5c(c34)CCCCCC5)CC2)cc1
7. OCC1OC(N2CCN(C3OC(CO)C(O)C(O)C3O)CC2)C(O)C(O)C1O (stereo unspecified)

Result:
1: > 10 µM; 2: > 100 µM; 3: > 100 µM; 4: > 100 µM; 5: > 100 µM; 6: > 100 µM; 7: > 100 µM

Report TGI for each item below.
1. O=[N+]([O-])c1ccc(NC(c2ccccc2)c2ccc3cccnc3c2O)cc1 (stereo unspecified)
2. COc1ccc2c(c1)C(=O)CC(C(N)=O)C2 (stereo unspecified)
3. Nc1ncnc2c1ncn2Cc1ccc(CCl)cc1
4. CCCCCCCN(CCCCCCC)C(=N)c1ccc(OC)c2ccccc12

Result:
1: > 100 µM; 2: > 100 µM; 3: 58.1 µM; 4: 3.53 µM

Report TGI for each item below.
1. C[C@H]1O[C@@H](O[C@H]2[C@@H](O)C[C@H](O[C@H]3[C@@H](O)C[C@H](O[C@H]4CC[C@]5(C)C6CC[C@]7(C)[C@@H](C8=CC(=O)OC8)CC[C@]7(O)C6CC[C@@H]5C4)O[C@@H]3C)O[C@@H]2C)C[C@H](O)[C@@H]1O (stereo partly specified)
2. Cc1cc2nc3c(C)c4ccccc4c(C)n3c2cc1C
3. O=C(NNC(=O)c1ccccc1O)c1cccs1
4. COc1cccc2c1CCc1sc(CN3CCN(C)CC3)nc1-2
5. CN(C)CC(O)CNC(=O)Nc1ccccc1 (stereo unspecified)
6. CCc1c[n+]2c(cc1C1=CN3c4ccccc4[C@]45CCN6C/C(=C/CO)[C@H](C[C@H]64)[C@@H]([C@@H]1O)[C@H]35)-c1[nH]c3ccccc3c1CC2

Result:
1: 1.57 µM; 2: > 10 µM; 3: > 100 µM; 4: > 100 µM; 5: > 100 µM; 6: > 50 µM
